target: RIOK2 (human); assay: KINOMEscan competition binding; settings: compound 10.0 µM
List of kinase still bound, per cent of control values.
reported endpoint: kinase still bound, per cent of control

> print(dat)
                                    compound  result
 1  COc1cc(C)c(Sc2cnc(NC(=O)c3ccc(CNC(C)C(C)C)cc3)s2)cc1C(=O)N1CCN(C(C)=O)CC1 (configuration not stated)    100%
 2  CCc1nc(-c2cccc(C)c2)c(-c2ccnc(NC(=O)c3ccccc3)c2)s1     92%
 3  CNC(=O)Nc1ccc(-c2nc(N3CC4CCC(C3)O4)c3cnn(C4CCC5(CC4)OCCO5)c3n2)cc1     90%
 4  CCOc1cc(N2CCC(O)CC2)ccc1Nc1ncc2c(n1)N(C)c1ccccc1C(=O)N2C    100%
 5  C=CC(=O)Nc1ccc(C(=O)c2sc(Nc3ccc(N4CCN(C)CC4)cc3OC)nc2N)cc1     53%
 6  CC(=O)c1c(C)c2cnc(Nc3ccc(N4CCNCC4)cn3)nc2n(C2CCCC2)c1=O     56%
 7  COc1cc2c(Nc3ccc(NC(=O)c4ccccc4)cc3)ncnc2cc1OCCCN1CCOCC1    100%
 8  CCN(CCO)CCCOc1ccc2c(Nc3cc(CC(=O)Nc4cccc(F)c4)[nH]n3)ncnc2c1     58%
 9  CCCS(=O)(=O)Nc1ccc(F)c(C(=O)c2c[nH]c3ncc(Cl)cc23)c1F      3%
10         COc1cc2ncnc(Nc3cccc(Cl)c3)c2cc1OC     43%
11  CC1=C(C(=O)Nc2cc3cn[nH]c3cc2F)C(c2ccc(C(F)(F)F)cc2)CC(=O)N1 (configuration not stated)     86%
12  CCN1CCN(Cc2ccc(NC(=O)c3ccc(C)c(/C=C/c4cnc5[nH]ccc5c4OC)c3)cc2C(F)(F)F)CC1     19%

###

List of kinase still bound, per cent of control values.
target: UniProt:Q06187; test: KINOMEscan competition binding; settings: compound 10.0 µM
Sequence (Q06187 whole entry, looked up): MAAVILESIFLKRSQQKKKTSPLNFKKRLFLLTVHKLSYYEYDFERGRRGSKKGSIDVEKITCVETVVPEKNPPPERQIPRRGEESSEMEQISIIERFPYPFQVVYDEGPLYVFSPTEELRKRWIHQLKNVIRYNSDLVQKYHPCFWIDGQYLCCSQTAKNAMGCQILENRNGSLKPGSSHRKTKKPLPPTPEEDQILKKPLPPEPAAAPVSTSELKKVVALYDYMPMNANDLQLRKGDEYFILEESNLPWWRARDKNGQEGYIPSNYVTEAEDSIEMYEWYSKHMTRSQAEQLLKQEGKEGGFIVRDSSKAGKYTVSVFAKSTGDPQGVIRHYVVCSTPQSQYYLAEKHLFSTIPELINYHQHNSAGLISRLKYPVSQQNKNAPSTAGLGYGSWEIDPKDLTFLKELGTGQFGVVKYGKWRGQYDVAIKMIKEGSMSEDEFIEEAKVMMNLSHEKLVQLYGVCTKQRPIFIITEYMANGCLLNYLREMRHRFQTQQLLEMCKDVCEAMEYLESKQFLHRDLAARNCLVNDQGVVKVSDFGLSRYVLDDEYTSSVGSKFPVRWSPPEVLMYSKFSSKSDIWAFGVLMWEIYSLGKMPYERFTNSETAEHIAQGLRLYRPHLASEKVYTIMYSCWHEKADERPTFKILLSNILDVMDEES
reported endpoint: kinase still bound, per cent of control (%)

> print(dat)
                                chem.smiles   tested.system                        reported.endpoint  units  numeric.readout
1  CCN(CCO)CCCOc1ccc2c(Nc3cc(CC(=O)Nc4cccc(F)c4)[nH]n3)ncnc2c1  UniProt:Q06187  kinase still bound, per cent of control      %              7.2
2  Cc1cn(-c2cc(C(=O)Nc3ccc(C)c(NC(=O)c4ccno4)c3)cc(C(F)(F)F)c2)cn1  UniProt:Q06187  kinase still bound, per cent of control      %              100
3  COc1ccc(N(C(=O)Oc2cc(C(=O)Nc3cccc(C(F)(F)F)c3)ccc2C)c2ccnc(Nc3ccc(N4CCN(C)CC4)cc3)n2)c(OC)c1  UniProt:Q06187  kinase still bound, per cent of control      %              1.4
4  CCOc1cc(N2CCC(O)CC2)ccc1Nc1ncc2c(n1)N(C)c1ccccc1C(=O)N2C  UniProt:Q06187  kinase still bound, per cent of control      %              100

###

target: CDK4 CCND1 (human) (UniProt P11802+P24385); experiment: KINOMEscan competition binding; details: compound 10.0 µM
Sequence (P11802 whole entry, looked up): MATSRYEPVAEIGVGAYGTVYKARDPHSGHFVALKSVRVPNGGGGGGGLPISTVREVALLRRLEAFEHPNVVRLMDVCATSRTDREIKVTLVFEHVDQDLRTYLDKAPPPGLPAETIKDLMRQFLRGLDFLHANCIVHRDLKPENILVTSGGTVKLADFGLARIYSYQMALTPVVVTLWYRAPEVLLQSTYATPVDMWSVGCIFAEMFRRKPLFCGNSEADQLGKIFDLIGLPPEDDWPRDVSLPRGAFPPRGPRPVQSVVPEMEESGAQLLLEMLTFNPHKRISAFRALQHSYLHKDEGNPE
Sequence (P24385 whole entry, looked up): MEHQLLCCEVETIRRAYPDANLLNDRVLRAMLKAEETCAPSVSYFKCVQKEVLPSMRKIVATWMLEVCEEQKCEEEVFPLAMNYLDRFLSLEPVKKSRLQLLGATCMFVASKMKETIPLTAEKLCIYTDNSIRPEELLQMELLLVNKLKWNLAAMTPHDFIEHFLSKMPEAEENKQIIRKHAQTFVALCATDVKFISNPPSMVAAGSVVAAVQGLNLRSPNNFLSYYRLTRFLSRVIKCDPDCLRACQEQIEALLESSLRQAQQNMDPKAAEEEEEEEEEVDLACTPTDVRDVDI
List of kinase still bound, per cent of control values.
reported endpoint: kinase still bound, per cent of control

> print(dat)
                                chem.smiles                        reported.endpoint  result
1  C=CC(=O)Nc1ccc(C(=O)c2sc(Nc3ccc(N4CCN(C)CC4)cc3OC)nc2N)cc1  kinase still bound, per cent of control     10%
2  CNC(=O)Nc1ccc(-c2nc(N3CC4CCC(C3)O4)c3cnn(C4CCC5(CC4)OCCO5)c3n2)cc1  kinase still bound, per cent of control     90%
3  N#C/C(=C1/Nc2ccccc2S1)c1ccnc(NCCc2cccnc2)n1  kinase still bound, per cent of control     32%
4  CCCS(=O)(=O)Nc1ccc(F)c(C(=O)c2c[nH]c3ncc(Cl)cc23)c1F  kinase still bound, per cent of control     64%
5         COc1cc2ncnc(Nc3cccc(Cl)c3)c2cc1OC  kinase still bound, per cent of control     90%

###

system: PIK3CA (human), P42336 [H1047L]; test: KINOMEscan competition binding; conditions: compound 10.0 µM
Sequence (P42336 whole entry H1047L, looked up): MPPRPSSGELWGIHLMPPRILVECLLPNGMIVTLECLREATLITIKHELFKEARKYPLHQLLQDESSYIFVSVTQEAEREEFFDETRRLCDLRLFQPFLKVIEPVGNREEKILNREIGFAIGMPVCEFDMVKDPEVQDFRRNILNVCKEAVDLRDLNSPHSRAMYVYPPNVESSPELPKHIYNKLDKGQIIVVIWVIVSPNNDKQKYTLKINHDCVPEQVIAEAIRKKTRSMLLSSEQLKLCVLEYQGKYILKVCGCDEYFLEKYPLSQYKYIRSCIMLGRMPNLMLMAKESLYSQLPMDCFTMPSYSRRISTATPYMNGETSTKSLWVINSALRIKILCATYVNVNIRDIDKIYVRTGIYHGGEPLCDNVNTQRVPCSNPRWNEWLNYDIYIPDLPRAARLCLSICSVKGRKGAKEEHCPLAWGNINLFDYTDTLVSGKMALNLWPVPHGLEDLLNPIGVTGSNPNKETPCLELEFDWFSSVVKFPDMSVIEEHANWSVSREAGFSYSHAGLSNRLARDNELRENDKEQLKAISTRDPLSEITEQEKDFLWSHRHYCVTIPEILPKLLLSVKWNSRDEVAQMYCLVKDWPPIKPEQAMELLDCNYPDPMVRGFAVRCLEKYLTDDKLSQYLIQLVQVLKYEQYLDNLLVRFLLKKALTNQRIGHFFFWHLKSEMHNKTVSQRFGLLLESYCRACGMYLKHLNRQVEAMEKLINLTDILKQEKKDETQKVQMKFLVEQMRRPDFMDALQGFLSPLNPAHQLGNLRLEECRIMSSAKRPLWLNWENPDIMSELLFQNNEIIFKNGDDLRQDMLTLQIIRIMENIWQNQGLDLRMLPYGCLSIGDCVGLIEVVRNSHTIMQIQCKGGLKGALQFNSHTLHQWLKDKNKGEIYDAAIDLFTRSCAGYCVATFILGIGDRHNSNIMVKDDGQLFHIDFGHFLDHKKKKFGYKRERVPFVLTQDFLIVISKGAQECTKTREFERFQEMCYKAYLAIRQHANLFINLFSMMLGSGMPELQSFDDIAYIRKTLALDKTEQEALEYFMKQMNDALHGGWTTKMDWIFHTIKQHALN
List of kinase still bound, per cent of control values.
reported endpoint: kinase still bound, per cent of control (%)

> print(dat)
                                 chem.smiles                        reported.endpoint  numeric.readout
 1  CN(C)C/C=C/C(=O)Nc1cccc(Nc2ncc3c(n2)N(C)c2ccccc2C(=O)N3C)c1  kinase still bound, per cent of control               16
 2  CCOc1cc(N2CCC(O)CC2)ccc1Nc1ncc2c(n1)N(C)c1ccccc1C(=O)N2C  kinase still bound, per cent of control              100
 3  COc1cc(N2CCN(C)CC2)ccc1Nc1nc(N)c(C(=O)c2c(Cl)cccc2Cl)s1  kinase still bound, per cent of control              100
 4   OCCCNc1cc(-c2ccnc(Nc3cccc(Cl)c3)n2)ccn1  kinase still bound, per cent of control              100
 5         COc1cc2ncnc(Nc3cccc(Cl)c3)c2cc1OC  kinase still bound, per cent of control               56
 6             Cc1ccc2nc(NCCN)c3ncc(C)n3c2c1  kinase still bound, per cent of control              100
 7  CCN(CCO)CCCOc1ccc2c(Nc3cc(CC(=O)Nc4cccc(F)c4)[nH]n3)ncnc2c1  kinase still bound, per cent of control               73
 8  CCCS(=O)(=O)Nc1ccc(F)c(C(=O)c2c[nH]c3ncc(-c4ccc(Cl)cc4)cc23)c1F  kinase still bound, per cent of control               95
 9  COc1ccc(N(C(=O)Oc2c(C)cccc2C)c2ccnc(Nc3ccc(N4CCN(C)CC4)cc3)n2)c(OC)c1  kinase still bound, per cent of control              100
10  COc1cc(C(=O)N2CCC(N3CCN(C)CC3)CC2)ccc1Nc1ncc2c(n1)N(C)c1ccccc1C(=O)N2C  kinase still bound, per cent of control               20
11  O=c1[nH]c2ccccc2n1C1CCN(Cc2ccc(-c3nc4cc5[nH]cnc5cc4nc3-c3ccccc3)cc2)CC1  kinase still bound, per cent of control               69
12  O=C1NC(=O)/C(=C/c2ccc3nccc(-c4ccncc4)c3c2)S1  kinase still bound, per cent of control               27
13  N#Cc1cc(-c2ccnc(Nc3ccc(-n4cnc(-c5cccnc5)n4)cc3)n2)cc(N2CCOCC2)c1  kinase still bound, per cent of control              100
14  COc1cc(C(=O)NC2CCN(C)CC2)ccc1Nc1ncc2c(n1)N(C1CCCC1)CCC(=O)N2C(C)C  kinase still bound, per cent of control              100
15  COCC(=O)NC/C=C/c1ccc2ncnc(Nc3ccc(Oc4ccc(C)nc4)c(C)c3)c2c1  kinase still bound, per cent of control              100
16  COc1cc2ncn(-c3cc(OCc4ccccc4C(F)(F)F)c(C(N)=O)s3)c2cc1OC  kinase still bound, per cent of control               73

###

target: KIT (human) (UniProt P10721); experiment: KINOMEscan competition binding; settings: compound 10.0 µM
Sequence (P10721 whole entry, looked up): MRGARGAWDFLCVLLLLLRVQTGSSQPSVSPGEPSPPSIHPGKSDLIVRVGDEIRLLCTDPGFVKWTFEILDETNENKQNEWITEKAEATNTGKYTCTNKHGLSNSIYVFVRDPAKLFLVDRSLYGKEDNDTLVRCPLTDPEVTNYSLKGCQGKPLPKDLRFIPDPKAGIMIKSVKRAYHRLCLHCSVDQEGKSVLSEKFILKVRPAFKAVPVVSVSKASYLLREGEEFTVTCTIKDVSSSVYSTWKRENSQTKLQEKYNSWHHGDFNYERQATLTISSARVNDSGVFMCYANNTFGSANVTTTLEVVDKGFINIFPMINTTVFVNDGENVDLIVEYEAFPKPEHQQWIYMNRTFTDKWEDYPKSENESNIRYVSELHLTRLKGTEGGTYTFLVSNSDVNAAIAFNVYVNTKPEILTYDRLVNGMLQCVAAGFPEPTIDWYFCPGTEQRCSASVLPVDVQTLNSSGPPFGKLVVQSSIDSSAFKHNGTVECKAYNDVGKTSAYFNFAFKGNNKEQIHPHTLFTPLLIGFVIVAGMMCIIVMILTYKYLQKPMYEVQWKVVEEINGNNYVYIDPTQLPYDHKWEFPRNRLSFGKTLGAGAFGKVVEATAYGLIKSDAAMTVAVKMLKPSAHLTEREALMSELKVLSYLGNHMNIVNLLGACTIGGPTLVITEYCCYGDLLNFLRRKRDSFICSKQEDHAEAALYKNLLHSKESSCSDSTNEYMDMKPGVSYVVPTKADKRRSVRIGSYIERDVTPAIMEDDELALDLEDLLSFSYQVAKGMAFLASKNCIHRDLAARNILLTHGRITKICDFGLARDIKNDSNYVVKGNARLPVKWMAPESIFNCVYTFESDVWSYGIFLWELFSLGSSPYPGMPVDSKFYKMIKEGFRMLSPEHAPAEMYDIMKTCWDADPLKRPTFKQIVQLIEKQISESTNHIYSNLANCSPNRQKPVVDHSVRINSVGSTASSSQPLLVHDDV
Label fulfilled when kinase still bound, per cent of control is strictly below 80%; at or above that, label not fulfilled.

> print(dat)
                                   compound  category.label
1  COc1cc2c(Nc3ccc(NC(=O)c4ccccc4)cc3)ncnc2cc1OCCCN1CCOCC1       fulfilled
2  CC1=C(C(=O)Nc2cc3cn[nH]c3cc2F)C(c2ccc(C(F)(F)F)cc2)CC(=O)N1 (configuration not stated)   not fulfilled
3  CC(=O)c1c(C)c2cnc(Nc3ccc(N4CCNCC4)cn3)nc2n(C2CCCC2)c1=O       fulfilled
4  COc1cc(N2CCC(C(N)=O)CC2)ccc1Nc1nc(N)c(Cl)c(Nc2ccccc2S(=O)(=O)C(C)C)n1   not fulfilled
5  Cc1cn(-c2cc(C(=O)Nc3ccc(C)c(NC(=O)c4ccno4)c3)cc(C(F)(F)F)c2)cn1       fulfilled
6  CCc1nc(-c2cccc(C)c2)c(-c2ccnc(NC(=O)c3ccccc3)c2)s1       fulfilled

###

List of kinase still bound, per cent of control values.
target: SIK3 (human); test: KINOMEscan competition binding; conditions: compound 10.0 µM
reported endpoint: kinase still bound, per cent of control (%)

> print(dat)
                                   compound                        reported.endpoint  numeric.readout
1         COc1cc2ncnc(Nc3cccc(Cl)c3)c2cc1OC  kinase still bound, per cent of control               53
2  CCN(CCO)CCCOc1ccc2c(Nc3cc(CC(=O)Nc4cccc(F)c4)[nH]n3)ncnc2c1  kinase still bound, per cent of control              100
3  CC1=C(C(=O)Nc2cc3cn[nH]c3cc2F)C(c2ccc(C(F)(F)F)cc2)CC(=O)N1 (stereo not given)  kinase still bound, per cent of control               94
4  CNC(=O)Nc1ccc(-c2nc(N3CC4CCC(C3)O4)c3cnn(C4CCC5(CC4)OCCO5)c3n2)cc1  kinase still bound, per cent of control               35
5  C=CC(=O)Nc1ccc(C(=O)c2sc(Nc3ccc(N4CCN(C)CC4)cc3OC)nc2N)cc1  kinase still bound, per cent of control               95

FYI, the data here is from the kinase profiling compilation of Christmann-Franck et al. (2016).
